Test system: zebrafish embryos
Test: acute toxicity test from 48–120 hpf based on the OECD FET test
Format: in vivo, zebrafish (Danio rerio)
Settings: zebrafish embryos exposed 48–120 hpf
result_type: LC50 (µM)
Your answer is read as µM, so omit the unit and give the number.

INPUT: Report LC50 for C[C@]12CCC(=O)C=C1CC[C@@H]1[C@@H]2CC[C@@]2(C)[C@H]1CC[C@]2(C)O [17α-MT, 17α-methyltestosterone]
OUTPUT: 90.2

---

Tested on: thyroid peroxidase (tpo)
Assay: tpo gene expression (qPCR) in exposed zebrafish embryos
Assay type: in vivo, zebrafish (Danio rerio)
Conditions: Danio rerio, read-out: EC50 tpo, exposed 48–120 hpf; Figure 4; upregulated
result_type: pEC50
pEC50 field: float, defined as -log10 of concentration (mol/L).

INPUT: Give recorded pEC50. N[C@@H](Cc1cc(I)c(Oc2ccc(O)c(I)c2)c(I)c1)C(=O)O [T3, 3,3′,5-triiodo-L-thyronine]
OUTPUT: 8.00
